Entries and their measured selectivity ratio follow.
- experiment_summary: Selectivity index, ratio of IC50 for cytotoxicity against African green monkey Vero cells to MIC for antimycobacterial activity against Mycobacterium tuberculosis H37Rv ATCC 27294
- Assay type: toxicity, cell-based
- stated_conditions: read-out: Selectivity Index

compound	selectivity ratio
C/C=C/C[C@@H]1NC(=O)[C@H](CC(C)C)N2C=C(C)C[C@@H](C2=O)N(C)C(=O)[C@H](C)NC(=O)[C@H](Cc2ccc(OC(=O)c3ccccc3)c([N+](=O)[O-])c2)NC(=O)[C@H](CC(C)C)N(C)C(=O)[C@H](Cc2cn(C(C)(C)[C@H](O)CCl)c3ccccc23)NC1=O	> 1900
C/C=C/C[C@@H]1NC(=O)[C@H](CC(C)C)N2C(=O)[C@H](CC(C)[C@H]2OC)N(C)C(=O)[C@H](C)NC(=O)[C@H](Cc2ccc(OC)c([N+](=O)[O-])c2)NC(=O)[C@H](CC(C)C)N(C)C(=O)[C@H](Cc2cn(C(C)(C)[C@H]3CO3)c3ccccc23)N(C)C1=O (stereo partly drawn)	1400
C/C=C/C[C@@H]1NC(=O)[C@H](CC(C)C)N2C=C(C)C[C@@H](C2=O)N(C)C(=O)[C@H](C)NC(=O)[C@H](Cc2ccc(O)c([N+](=O)[O-])c2)NC(=O)[C@H](CC(C)C)N(C)C(=O)[C@H](Cc2cn(C(C)(C)[C@H](O)CBr)c3ccccc23)NC1=O	> 32000
C/C=C/C[C@@H]1NC(=O)[C@H](CC(C)C)N2C(=O)[C@H](CC(C)[C@H]2OC)N(C)C(=O)[C@H](C)NC(=O)[C@H](Cc2ccc(OC(C)=O)c([N+](=O)[O-])c2)NC(=O)[C@H](CC(C)C)N(C)C(=O)[C@H](Cc2cn(C(C)(C)[C@H]3CO3)c3ccccc23)NC1=O (stereo partly drawn)	> 71000
C/C=C/C[C@@H]1NC(=O)[C@H](CC(C)C)N2C=C(C)C[C@@H](C2=O)N(C)C(=O)[C@H](C)NC(=O)[C@H](Cc2ccc3oc(=O)[nH]c3c2)NC(=O)[C@H](CC(C)C)N(C)C(=O)[C@H](Cc2cn(C(C)(C)[C@H](O)CCl)c3ccccc23)NC1=O	> 830
C/C=C/C[C@@H]1NC(=O)[C@H](CC(C)C)N2C(=O)[C@H](CC(C)[C@H]2OCCC)N(C)C(=O)[C@H](C)NC(=O)[C@H](Cc2ccc(O)c([N+](=O)[O-])c2)NC(=O)[C@H](CC(C)C)N(C)C(=O)[C@H](Cc2cn(C(C)(C)[C@H](O)CCl)c3ccccc23)NC1=O (stereo partly drawn)	> 13
C/C=C/C[C@@H]1NC(=O)[C@H](CC(C)C)N2C=C(C)C[C@@H](C2=O)N(C)C(=O)[C@H](C)NC(=O)[C@H](Cc2ccc(O)c(NC(=O)CCl)c2)NC(=O)[C@H](CC(C)C)N(C)C(=O)[C@H](Cc2cn(C(C)(C)[C@H](O)CCl)c3ccccc23)NC1=O	> 1000
C/C=C/C[C@@H]1NC(=O)[C@H](CC(C)C)N2C=C(C)C[C@@H](C2=O)N(C)C(=O)[C@H](C)NC(=O)[C@H](Cc2ccc3ocnc3c2)NC(=O)[C@H](CC(C)C)N(C)C(=O)[C@H](Cc2cn(C(C)(C)[C@H](O)CCl)c3ccccc23)NC1=O	> 830

###

- experiment_summary: Selectivity index, ratio of IC50 for cytotoxicity against African green monkey Vero cells to MIC for antimycobacterial activity against Mycobacterium tuberculosis H37Rv ATCC 27294
- Type: toxicity, cell-based
- stated_conditions: read-out: Selectivity Index
quantity: selectivity ratio

compound	quantity	observed_result
C/C=C/C[C@@H]1NC(=O)[C@H](CC(C)C)N2C=C(C)C[C@@H](C2=O)N(C)C(=O)[C@H](C)NC(=O)[C@H](Cc2ccc(OC(C)=O)c([N+](=O)[O-])c2)NC(=O)[C@H](CC(C)C)N(C)C(=O)[C@H](Cc2cn(C(C)(C)[C@H](O)CCl)c3ccccc23)NC1=O	selectivity ratio	> 4500
C/C=C/C[C@@H]1NC(=O)[C@H](CC(C)C)N2C(=O)[C@H](CC(C)[C@H]2OC(C)=O)N(C)C(=O)[C@H](C)NC(=O)[C@H](Cc2ccc(OC(C)=O)c([N+](=O)[O-])c2)NC(=O)[C@H](CC(C)C)N(C)C(=O)[C@H](Cc2cn(C(C)(C)[C@H]3CO3)c3ccccc23)NC1=O (stereo partly drawn)	selectivity ratio	> 23000
C/C=C/C[C@@H]1NC(=O)[C@H](CC(C)C)N2C=C(C)C[C@@H](C2=O)N(C)C(=O)[C@H](C)NC(=O)[C@H](Cc2ccc(OC(=O)c3ccccc3)c([N+](=O)[O-])c2)NC(=O)[C@H](CC(C)C)N(C)C(=O)[C@H](Cc2cn(C(C)(C)[C@@H](CCl)OC(=O)c3ccccc3)c3ccccc23)NC1=O	selectivity ratio	> 220

###

- Test system: Mycobacterium tuberculosis
- experiment_summary: Antimycobacterial activity against Mycobacterium tuberculosis H37Rv ATCC 27294 assessed as reduction in bacterial growth by microplate alamar blue assay
- Type: functional
Known MIC of a selection of molecules
quantity: MIC (µM)

molecule	observed_result
C/C=C/C[C@@H]1NC(=O)[C@H](CC(C)C)N2C=C(C)C[C@@H](C2=O)N(C)C(=O)[C@H](C)NC(=O)[C@H](Cc2ccc3c(c2)N=C(C)CC(C)(C)O3)NC(=O)[C@H](CC(C)C)N(C)C(=O)[C@H](Cc2cn(C(C)(C)[C@H](O)CCl)c3ccccc23)NC1=O	0.79
C/C=C/C[C@@H]1NC(=O)[C@H](CC(C)C)N2C=C(C)C[C@@H](C2=O)N(C)C(=O)[C@H](C)NC(=O)[C@H](Cc2ccc3oc(=O)[nH]c3c2)NC(=O)[C@H](CC(C)C)N(C)C(=O)[C@H](Cc2cn(C(C)(C)[C@H](O)CCl)c3ccccc23)NC1=O	0.12
C/C=C/C[C@@H]1NC(=O)[C@H](CC(C)C)N2C=C(C)C[C@@H](C2=O)N(C)C(=O)[C@H](C)NC(=O)[C@H](Cc2ccc3ocnc3c2)NC(=O)[C@H](CC(C)C)N(C)C(=O)[C@H](Cc2cn(C(C)(C)[C@H](O)CCl)c3ccccc23)NC1=O	0.12
C/C=C/C[C@@H]1NC(=O)[C@H](CC(C)C)N2C=C(C)C[C@@H](C2=O)N(C)C(=O)[C@H](C)NC(=O)[C@H](Cc2ccc(O)c(N)c2)NC(=O)[C@H](CC(C)C)N(C)C(=O)[C@H](Cc2cn(C(C)(C)[C@H](O)CCl)c3ccccc23)NC1=O	0.89
C/C=C/C[C@@H]1NC(=O)[C@H](CC(C)C)N2C(=O)[C@H](C[C@@H](C)[C@H]2OCC)N(C)C(=O)[C@H](C)NC(=O)[C@H](Cc2ccc(O)c([N+](=O)[O-])c2)NC(=O)[C@H](CC(C)C)N(C)C(=O)[C@H](Cc2cn(C(C)(C)[C@H](O)CCl)c3ccccc23)NC1=O	0.24
C/C=C/C[C@@H]1NC(=O)[C@H](CC(C)C)N2C(=O)[C@H](CC(C)[C@H]2OC)N(C)C(=O)[C@H](C)NC(=O)[C@H](Cc2ccc(OC(C)=O)c([N+](=O)[O-])c2)NC(=O)[C@H](CC(C)C)N(C)C(=O)[C@H](Cc2cn(C(C)(C)[C@H]3CO3)c3ccccc23)NC1=O (stereo not given in full)	0.001
C/C=C/C[C@@H]1NC(=O)[C@H](CC(C)C)N2C(=O)[C@H](C[C@H](C)[C@@H]2OCCCC)N(C)C(=O)[C@H](C)NC(=O)[C@H](Cc2ccc(O)c([N+](=O)[O-])c2)NC(=O)[C@H](CC(C)C)N(C)C(=O)[C@H](Cc2cn(C(C)(C)[C@H](O)CCl)c3ccccc23)NC1=O	0.048
C/C=C/C[C@@H]1NC(=O)[C@H](CC(C)C)N2C(=O)[C@H](CC(C)[C@H]2OC)N(C)C(=O)[C@H](C)NC(=O)[C@H](Cc2ccc(OC)c([N+](=O)[O-])c2)NC(=O)[C@H](CC(C)C)N(C)C(=O)[C@H](Cc2cn(C(C)(C)[C@H]3CO3)c3ccccc23)N(C)C1=O (stereo not given in full)	0.065
C/C=C/C[C@@H]1NC(=O)[C@H](CC(C)C)N2C=C(C)C[C@@H](C2=O)N(C)C(=O)[C@H](C)NC(=O)[C@H](Cc2ccc(OC(=O)c3ccccc3)c([N+](=O)[O-])c2)NC(=O)[C@H](CC(C)C)N(C)C(=O)[C@H](Cc2cn(C(C)(C)[C@@H](CCl)OC(=O)c3ccccc3)c3ccccc23)NC1=O	0.45
C/C=C/C[C@@H]1NC(=O)[C@H](CC(C)C)N2C=C(C)C[C@@H](C2=O)N(C)C(=O)[C@H](C)NC(=O)[C@H](Cc2ccc(OC(=O)c3ccccc3)c([N+](=O)[O-])c2)NC(=O)[C@H](CC(C)C)N(C)C(=O)[C@H](Cc2cn(C(C)(C)[C@H](O)CCl)c3ccccc23)NC1=O	0.052

# credit: ChEMBL document CHEMBL6177961
